Recorded values, source ChEMBL document CHEMBL1201862.

// values below are reported GI50
# System: 786-0
# Assay Name: NCI tumour cell line growth inhibition, 48 h
Calls of active or inactive are those of the source. Rule as the data show it: active = GI50 up to about 1.1 µM and inactive = higher.

Guide cases for GI50, answers given:
{"Molecule": "Cc1ccn2c(c1)nc1nc3ccccc3nc12", "Test Result": "> 100 µM (inactive)"}
{"Molecule": "CC1[C@@H](OCc2ccccc2)COC(=O)N1Cc1ccccc1 (stereo partly specified)", "Test Result": "> 100 µM (inactive)"}
{"Molecule": "O=C(CCc1ccccc1)On1c(-c2ccccc2)nc2ccccc2c1=S", "Test Result": "2.06 µM (inactive)"}

Identify measured GI50 associated with Nc1nc(N)c2ncn(CCCC(c3ccccc3)P(=O)(O)O)c2n1 (stereo unspecified) > 100 µM (inactive)

Answer with reported GI50 of `S=c1sc2c(Cl)nc(Cl)nc2n1-c1ccccc1` > 100 µM (inactive)

Return GI50 for the following molecule: `O=[N+]([O-])c1ccc2nc(Nc3ccccc3)c(Nc3ccccc3)nc2c1` 1.49 µM (inactive)

---

Reported GI50 values for a set of compounds
# Tested on: SNB-75
# Assay Name: NCI tumour cell line growth inhibition, 48 h
The source made the active and inactive calls. Rule as the data show it: active = GI50 up to about 1.1 µM and inactive = higher.

Examples from the recorded data:
{"Compound": "N=C(N)NCCCC(=O)O", "GI50": "> 100 µM (inactive)"}
{"Compound": "CCCCC(C(=O)CCC(=O)Nc1ccc(Cl)c(Cl)c1)C(=O)C(C)C (stereo unspecified)", "GI50": "21.6 µM (inactive)"}
{"Compound": "O=C(Cc1ccc(Cl)c(Cl)c1)N(CCc1ccc(Cl)c(Cl)c1)CCN1CCCC1", "GI50": "2.05 µM (inactive)"}
{"Compound": "CN(C)CCNC(=O)c1cccc2[nH]c(-c3ccc(Cl)cc3)nc12", "GI50": "4.4 µM (inactive)"}
{"Compound": "CCOC(=O)c1c[nH]cc1-c1cn(S(=O)(=O)c2ccccc2)cc1C", "GI50": "15.3 µM (inactive)"}

Note GI50 for the compound shown: O=C1CSC(c2c(O)ccc3ccccc23)N1n1c(S)nnc(/C=C/c2c(O)ccc3ccccc23)c1=O (stereo unspecified) 1.5 µM (inactive)

Could you please provide reported GI50 for `CC(C)=C1C(=O)C[C@]2(C)C/C=C(\C)CC/C=C(\C)CC[C@@H]12` ? Thanks! 9.66 µM (inactive)

Identify measured GI50 corresponding to COC(=O)C1=COC2OC3C(C(C)O)C(=O)OC34C=CC1C24 (stereo unspecified) 35.8 µM (inactive)

Annotate the compound `Cc1ccn2c(c1)nc1nc3ccccc3nc12` with its measured GI50. 78.5 µM (inactive)

Tell us which GI50 value is on record for `CN(C)c1ccc(/C=C(/NC(=O)c2ccccc2)C(=O)Nc2ccccc2C(=O)O)cc1` > 100 µM (inactive)

Tell me its GI50 given `O=C(O)CNS(=O)(=O)c1ccc(NC(=O)Nc2ccccc2)cc1` as the entry. > 100 µM (inactive)

---

# Test system: SW-620
# Assay Name: NCI tumour cell line growth inhibition, 48 h
Active and inactive are the calls of the source. No stated cut-off is given here; in the data, active = GI50 up to about 1.1 µM and inactive = higher. Where a SMILES comes first, the peptide text is derived from it. [ ]: non-standard residue; d: D form. The star is where a group is joined. Phe(4-NO2) = N[CH](Cc1ccc([N+](=O)[O-])cc1)C(=O)O; ONb = O=[N+]([O-])c1ccc(CO*)cc1; Boc = CC(C)(C)OC(=O)*
Pick one: 1.0 for active, 0.0 for inactive

The following compounds have reported results that may help.
{"Compound": "O=C1c2ccccc2C(=O)N1C(=S)c1ccccc1", "Label Class": 0.0}
{"Compound": "COc1ccc(OC)c(C(Cc2ccnc3ccccc23)Cc2ccnc3ccccc23)c1", "Label Class": 0.0}
{"Compound": "Clc1ccc(Cl)c(/N=N\\c2cc3c4c(c2)CCN4CCC3)c1", "Label Class": 0.0}
{"Compound": "CC1OC2=N[C@@H]1C(=O)N[C@@H](Cc1ccccc1)C1=N[C@H](C(=O)N[C@@H](Cc3ccccc3)C3=N[C@H](C(=O)N[C@H]2Cc2ccccc2)C(C)O3)C(C)O1 (stereo partly specified)", "Label Class": 0.0}
{"Compound": "OC1(c2ccc3ccccc3c2)c2c(c3ccccc3c3ccccc23)C2=NCCN21 (stereo unspecified)", "Label Class": 0.0}
{"Compound": "COC(C)(C)C1(O)CC[C@@H](C)CC1=O (stereo partly specified)", "Label Class": 0.0}
{"Compound": "CC(c1ccccc1)n1c2ccccc2c2c(N)ncnc21 (stereo unspecified)", "Label Class": 0.0}
{"Compound": "O=[N+]([O-])c1nccn1COCCBr", "Label Class": 0.0}
{"Compound": "CC[C@@H]1C[C@H]2CC3c4[nH]c5ccc(O)cc5c4CCN(C2)C31", "Label Class": 0.0}
{"Compound": "COc1cc2c(c(OC)c1OC)-c1ccc(SC)c(=O)cc1C(CC(=O)Oc1cccc(C#N)c1)C2 (stereo unspecified)", "Label Class": 1.0}

Given O=C(c1ccncc1)C1C(=O)c2ccccc2C1C1(O)c2ccccc2CC1C(O)c1ccncc1 (stereo unspecified) , state the outcome it received in this test. 0.0

Short answer needed: outcome of this test for `C=CCN(CCNS(=O)(=O)c1ccc(C)cc1)S(=O)(=O)c1ccc(C)cc1` ? 0.0

Can you look up the reported call for COc1ccc(/N=N/C(=O)NC(Cc2ccccc2)C(=O)O)cc1 (stereo unspecified) for me? 0.0

Which outcome did this test record for the compound CC(C)CC(NC(=O)OC(C)(C)C)C(=O)NC(CCC(=O)OCc1ccc([N+](=O)[O-])cc1)C(=O)OCc1ccc([N+](=O)[O-])cc1 (stereo not drawn) (Boc-Leu-Glu(ONb)-ONb; configuration not given here) ? 0.0

What classification did `CCCn1cc2c(O)nc(SC)nc2n1` end up with in this test? 0.0

I'd appreciate the recorded outcome for CC(=O)Nc1cc2nc3n(c2cc1C)CCC3OC(C)=O (stereo unspecified) from this test. 0.0

What classification did COC(=O)CCC(NC(=O)C(CCC(=O)OC)NC(=O)C(CCC(=O)OC)NC(=O)C(CCC(=O)OC)NC(=O)C(CCC(=O)OC)NC(=O)C(Cc1ccc([N+](=O)[O-])cc1)NC(=O)C(CCC(=O)OC)NC(=O)C(CCC(=O)OC)NC(=O)C(CCC(=O)OC)NC(=O)C(CCC(=O)OC)NC(=O)C(CCC(=O)OC)NC(C)=O)C(N)=O (stereo unspecified) (Ac-E(OMe)E(OMe)E(OMe)E(OMe)E(OMe)[Phe(4-NO2)]E(OMe)E(OMe)E(OMe)E(OMe)E(OMe)-NH2; configuration not given here) end up with in this test? 0.0

Hi team, can someone confirm the assay call for `COC1=CC(=Nc2c(Cl)cc(Cl)cc2OC(=O)c2ccc([N+](=O)[O-])cc2)C=C(OC)C1=O` ? 0.0

---

GI50 values by entry
# System: SNB-19
# Assay Name: NCI tumour cell line growth inhibition, 48 h
The source made the active and inactive calls. No stated cut-off is given here; in the data, active = GI50 up to about 1.1 µM and inactive = higher.

{"Compound": "CC1(C)CCCCCC(O)C(O)CCC(C)(C)C1=O (stereo not drawn)", "Measured On": "SNB-19", "GI50": "> 100 µM (inactive)"}
{"Compound": "O=C1C(NS(=O)(=O)c2ccccc2)=C(n2cnc3ccccc32)C(=O)c2ccccc21", "Measured On": "SNB-19", "GI50": "38.4 µM (inactive)"}

Here is the next item to consider.
For SNB-19, give GI50 of the listed compound: COc1cc(Br)c(CC2(C#N)c3ccccc3C3C(N2C(=O)c2ccccc2)C3(Cl)Cl)cc1OC (stereo not drawn) > 65.5 µM (inactive)

---

# Tested on: Malme-3M
# Assay Name: NCI tumour cell line growth inhibition, 48 h
Calls of active or inactive are those of the source. No stated cut-off is given here; in the data, active = GI50 up to about 1.1 µM and inactive = higher.
// classify into 1 for active, -1 for inactive

{"Compound": "C=C(C)C12CC3CC/C(=N/O)C(C1)C3(N1CCOCC1)C/C2=N/O (stereo unspecified)", "Measured On": "Malme-3M", "Label Class": -1}
{"Compound": "O=C1OC(O)C(Oc2c(Cl)cccc2Cl)=C1Cl (stereo unspecified)", "Measured On": "Malme-3M", "Label Class": -1}
{"Compound": "Cc1oc2c(c1C)S(=O)(=O)C(C#N)=C(c1ccccc1)N2", "Measured On": "Malme-3M", "Label Class": -1}

Please let me know the test result on file for C/C=C(\C)c1cc(=O)c2c(C)cc3c(c2o1)C(OC)(OC(C)=O)c1c(O)c(C2CC(C)(N(C)C)C(OC(C)=O)C(C)O2)cc(C2CC(N(C)C)C(OC(C)=O)C(C)O2)c1C3=O (stereo unspecified) . 1

Record lookup: outcome of this test for `COc1cccc(-c2cc(=O)c3ccccc3o2)c1N` ? -1

What did this assay record as the result for `Cn1c(=O)c2nc(N3CCOCC3)cnc2n(C)c1=O` ? -1

For `N#Cc1c(-c2ccc(Cl)cc2)c(C#N)c(=O)n(NS(=O)(=O)c2ccccc2)c1S` , which call appears in the assay record? -1

What call does the record list for `Cc1c(N=C(S)Nc2ccc(Cl)cc2)c(=O)n(-c2ccccc2)n1C` ? -1

Given O=P(Nc1ccccc1)(Oc1ccccc1)N1CCN(c2ccccc2)CC1 (stereo unspecified) , state the outcome it received in this test. -1

// return assay outcome for `N=C(N)NCCCC(=O)O` -1

Recorded test call requested for `Cn1ccnc1C(O)(c1nccn1C)c1nccn1C` -1
